tested on: 621-103 (TSC2-rescued); assay: relative viability vs DMSO; higher = less cytotoxic; conditions: 0.01 µM; serum: 10% FBS; 72 h;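 further: immortalized renal angiomyolipoma cells stably carrying empty vector or TSC2, dosed in 384-well plates in DMEM, viability normalized to vehicle-treated wells within each plate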
Counter-ions that a name gives are not always drawn.
Reported relative viability by item:
The answer is to be given in %; state only the numeric part.

Some solved cases for reference:
# molecule, relative viability (%)
measured = [
    ("N#CC(=C(/N)Sc1ccccc1N)/C(C#N)=C(\\N)Sc1ccccc1N [U0126-EtOH]", 99.9),
    ("NC(CO)C(=O)NNCc1ccc(O)c(O)c1O (stereo not drawn) [Benserazide HCl]", 110),
    ("CN1C2CCCC1CC(NC(=O)c1nn(C)c3ccccc13)C2 (stereo not drawn) [Granisetron HCl]", 106),
]

Notebook: CN1CCc2c(c3ccccc3n2Cc2ccc(C(=O)NO)cc2)C1 [Tubastatin A HCl] , relative viability read as 101

NC(=O)[C@@H](CCC(F)(F)F)N(Cc1ccc(-c2ncon2)cc1F)S(=O)(=O)c1ccc(Cl)cc1 yielded relative viability of 102

Noted for FC(F)(F)c1ccc(Nc2nc3ccc(Oc4ccnc(-c5ncc(C(F)(F)F)[nH]5)c4)cc3[nH]2)cc1 [Raf265 derivative] : its relative viability reads 94.7

So for O=C(NC[C@H]1CN(c2ccc(N3CCOCC3=O)cc2)C(=O)O1)c1ccc(Cl)s1 [Rivaroxaban (Xarelto)] , the logged relative viability turned out to be 121

Per the record, CC(O)(CS(=O)(=O)c1ccc(F)cc1)C(=O)Nc1ccc(C#N)c(C(F)(F)F)c1 (stereo not drawn) [Bicalutamide (Casodex)] has relative viability of 101
